- Experiment summary: Volume of distribution at steady state in rat at 2.8 to 9.5 mg/kg, iv
- Assay type: ADME, organism-based
- Set-up: dose 2.8-9.5 mg/kg, route intravenous
- Assay context: in vivo, read-out: Vdss
Readout name: Vd (L/kg)
API: value field is a number in L/kg; no unit string.

// known answers, use as guide
INSERT INTO assay_data (compound, readout_name, reported_measurement) VALUES
  ('CCNC(=O)Nc1nc2cc(-c3cccnc3)cc(-c3ccccn3)c2[nH]1', 'Vd', 1.1),
  ('CCNC(=O)Nc1nc2cc(-c3cnc(C(C)(C)O)nc3)cc(-c3ncccc3F)c2[nH]1', 'Vd', 2.1),
  ('CC(=O)NC[C@H]1CN(c2ccc(N3CCOCC3)c(F)c2)C(=O)O1 [LINEZOLID]', 'Vd', 1);

# ---- query compound ----
The compound listed as `CCNC(=O)Nc1nc2cc(-c3cccnc3)cc(-c3ncccc3F)c2[nH]1` has a reported Vd of 1.6

----------
Attribute: AUC/dose
- Tested on: Rattus norvegicus
- Experiment summary: Dose normalized AUC in rat at 2.8 to 9.5 mg/kg, iv
- Type: ADME, organism-based
- Design: dose 2.8-9.5 mg/kg, route intravenous
- Assay context: in vivo
The reply should be a number in µg·h/mL, with the unit left off.

Here are 3 compounds together with their reported answers.
INSERT INTO measurements (compound, readout_name, reading_unit, reported_measurement) VALUES
  ('CC(=O)NC[C@H]1CN(c2ccc(N3CCOCC3)c(F)c2)C(=O)O1 [LINEZOLID]', 'AUC/dose', 'µg·h/mL', 1.1),
  ('CCNC(=O)Nc1nc2cc(-c3cccnc3)cc(-c3ccccn3)c2[nH]1', 'AUC/dose', 'µg·h/mL', 1.6),
  ('CCNC(=O)Nc1nc2cc(-c3cccnc3)cc(-c3ncccc3F)c2[nH]1', 'AUC/dose', 'µg·h/mL', 1.1);

Next, consider the following compound.
For `CCNC(=O)Nc1nc2cc(-c3cnc(C(C)(C)O)nc3)cc(-c3ncccc3F)c2[nH]1` the compound record lists AUC/dose as 0.8

----------
- Experiment summary: Clearance in rat at 2.8 to 9.5 mg/kg, iv
- Format: ADME, organism-based
- Design: dose 2.8-9.5 mg/kg, route intravenous
- Assay context: in vivo
Readout name: clearance (mL/min/kg)
State just the number; it will be interpreted in mL/min/kg.

INSERT INTO results (compound_string, readout_name, reported_measurement) VALUES
  ('CCNC(=O)Nc1nc2cc(-c3cnc(C(C)(C)O)nc3)cc(-c3ncccc3F)c2[nH]1', 'clearance', 23),
  ('CCNC(=O)Nc1nc2cc(-c3cccnc3)cc(-c3ncccc3F)c2[nH]1', 'clearance', 14),
  ('CCNC(=O)Nc1nc2cc(-c3cccnc3)cc(-c3ccccn3)c2[nH]1', 'clearance', 12.5);

For `CC(=O)NC[C@H]1CN(c2ccc(N3CCOCC3)c(F)c2)C(=O)O1` the compound record lists clearance as 14.5

----------
- Experiment summary: Half life in rat at 2.8 to 9.5 mg/kg, iv
- Type: ADME, organism-based
- Set-up: dose 2.8-9.5 mg/kg, route intravenous
- Assay context: in vivo
Readout name: half-life
Returns: string containing the number followed by the unit.

Guide cases for half-life, answers given:
INSERT INTO assay_data (compound, readout_name, reported_measurement) VALUES
  ('CCNC(=O)Nc1nc2cc(-c3cnc(C(C)(C)O)nc3)cc(-c3ncccc3F)c2[nH]1', 'half-life', '72 min'),
  ('CC(=O)NC[C@H]1CN(c2ccc(N3CCOCC3)c(F)c2)C(=O)O1 [LINEZOLID]', 'half-life', '42 min');

# half-life (compound: `CCNC(=O)Nc1nc2cc(-c3cccnc3)cc(-c3ccccn3)c2[nH]1` ) is 126 min

Notebook: `CCNC(=O)Nc1nc2cc(-c3cccnc3)cc(-c3ncccc3F)c2[nH]1` , half-life read as 42 min
